Tested on: COLO 205
Test: cells
Assay type: functional, cell-based, Homo sapiens
Settings: Homo sapiens, COLO 205
Description: SANGER: Inhibition of human COLO-205 cell growth in a cell viability assay.
pIC50: −log10 of the molar value.
Reported metric: pIC50

Examples with their reported pIC50 follow.
[
  {
    "Smiles structure": "O=C(O)c1ccc(-c2c[nH]c3ncc(-c4ccccc4)cc23)cc1C1CCCC1",
    "pIC50": "< 4.80"
  },
  {
    "Smiles structure": "N#Cc1c(O)c2c(-c3ccc(-c4ccccc4O)cc3)csc2[nH]c1=O",
    "pIC50": "< 5.99"
  },
  {
    "Smiles structure": "CCC/C=C/C=C/C(=O)O[C@H]1/C(=C/C(=O)OC)C[C@H]2C[C@H]([C@@H](C)O)OC(=O)C[C@H](O)C[C@@H]3C[C@H](OC(C)=O)C(C)(C)[C@](O)(C[C@@H]4C/C(=C/C(=O)OC)C[C@H](/C=C/C(C)(C)[C@]1(O)O2)O4)O3",
    "pIC50": "< 8.10"
  }
]

// sample Nc1ccn([C@@H]2O[C@H](CO)[C@@H](O)C2(F)F)c(=O)n1 , its pIC50 was < 5.99

###

Listed here are compounds together with their documented pIC50.
Test system: D-247MG
Assay: cells
Assay type: functional, cell-based, Homo sapiens
Details: Homo sapiens, D-247MG
Description: SANGER: Inhibition of human D-247MG cell growth in a cell viability assay.
pIC50: −log10 of the molar value.

Examples with their reported pIC50 follow.
[
  {
    "Smiles structure": "CCN(CC)CCNC(=O)c1c(C)[nH]c(/C=C2\\C(=O)Nc3ccc(F)cc32)c1C",
    "System name": "D-247MG",
    "Result value": "< 5.10"
  },
  {
    "Smiles structure": "C#Cc1cccc(Nc2ncnc3cc(OCCOC)c(OCCOC)cc23)c1",
    "System name": "D-247MG",
    "Result value": "< 5.70"
  },
  {
    "Smiles structure": "Cc1ccc(-c2c(C(=O)CCl)n(CCCO)c3ncnc(N)c23)cc1",
    "System name": "D-247MG",
    "Result value": "< 5.40"
  }
]

// sample CO[C@H]1C[C@@H]2CC[C@@H](C)[C@@](O)(O2)C(=O)C(=O)N2CCCC[C@H]2C(=O)O[C@H]([C@H](C)C[C@@H]2CC[C@@H](OC(=O)C(C)(CO)CO)[C@H](OC)C2)CC(=O)[C@H](C)/C=C(\C)[C@@H](O)[C@@H](OC)C(=O)[C@H](C)C[C@H](C)/C=C/C=C/C=C/1C , its pIC50 was < 6.70

###

Test system: LAMA-84;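 note: growth inhibition of LAMA-84 cells, read out with a cell viability assay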
Experiment: cells
Assay type: functional, cell-based, Homo sapiens
Details: Homo sapiens, LAMA-84
Description: SANGER: Inhibition of human LAMA-84 cell growth in a cell viability assay.
Listed here are compounds together with their documented pIC50.
Scale explanation: pIC50 corresponds to minus log10 of a concentration expressed in moles per litre.

[
  {
    "Compound": "N[C@@H](CSC(c1ccccc1)(c1ccccc1)c1ccccc1)C(=O)O",
    "pIC50": 5.50
  }
]

For Cc1cn(-c2cc(NC(=O)c3ccc(C)c(Nc4nccc(-c5cccnc5)n4)c3)cc(C(F)(F)F)c2)cn1 on LAMA-84, measured pIC50 was 8.31

For COc1cccc2c1C(=O)c1c(O)c3c(c(O)c1C2=O)C[C@@](O)(C(=O)CO)C[C@@H]3O[C@H]1C[C@H](N)[C@H](O)[C@H](C)O1 on LAMA-84, measured pIC50 was 6.36

For CC(C)CCN1c2nc(Nc3cc(F)c(O)c(F)c3)ncc2N(C)C(=O)C1C (stereo unspecified) on LAMA-84, measured pIC50 was 5.95

###

Listed here are molecules together with their documented pIC50.
System: ESS-1;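 note: growth inhibition of human ESS-1 cells, read out by a cell viability assay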
Assay: cells
Format: functional, cell-based, Homo sapiens
Conditions: Homo sapiens, ESS-1
Description: SANGER: Inhibition of human ESS-1 cell growth in a cell viability assay.
pIC50: −log10 of the molar value.

Examples with their reported pIC50 follow.
[
  {
    "Smiles structure": "CCN(CC)CCCCNc1ncc2cc(-c3cc(OC)cc(OC)c3)c(NC(=O)NC(C)(C)C)nc2n1",
    "System name": "ESS-1",
    "Reported metric": "pIC50",
    "Result value": "< 5.70"
  },
  {
    "Smiles structure": "Cn1cnc2c(F)c(Nc3ccc(Br)cc3Cl)c(C(=O)NOCCO)cc21",
    "System name": "ESS-1",
    "Reported metric": "pIC50",
    "Result value": "< 5.40"
  },
  {
    "Smiles structure": "COc1cccc2c1C(=O)c1c(O)c3c(c(O)c1C2=O)C[C@@](O)(C(=O)CO)C[C@@H]3O[C@H]1C[C@H](N)[C@H](O)[C@H](C)O1",
    "System name": "ESS-1",
    "Reported metric": "pIC50",
    "Result value": 7.96
  }
]

Now for another entry.
// sample CS(=O)(=O)c1ccc(C(=O)Nc2ccc(Cl)c(-c3ccccn3)c2)c(Cl)c1 , its pIC50 was < 5.00

###

Test system: K562
Test: cells
Assay type: functional, cell-based, Homo sapiens
Conditions: k562
Description: SANGER: Inhibition of human K-562 cell growth in a cell viability assay.
Reported metric: pIC50
Scale explanation: pIC50 corresponds to minus log10 of a concentration expressed in moles per litre.

// sample BLEOMYCIN , its pIC50 was 3.90

###

System: K5
Assay: cells
Format: functional, cell-based, Homo sapiens
Conditions: Homo sapiens, K5
Description: SANGER: Inhibition of human K5 cell growth in a cell viability assay.
Reported metric: IC50

Examples with their reported IC50 follow.
[
  {
    "Compound": "CC[C@H](CO)Nc1nc(NCc2ccccc2)c2ncn(C(C)C)c2n1 [SELICICLIB]",
    "IC50": "> 16 µM"
  },
  {
    "Compound": "Cc1cn(-c2cc(NC(=O)c3ccc(C)c(Nc4nccc(-c5cccnc5)n4)c3)cc(C(F)(F)F)c2)cn1 [NILOTINIB]",
    "IC50": "> 2 µM"
  },
  {
    "Compound": "Cc1cc([N+](=O)[O-])ccc1NS(=O)(=O)c1cc(Cl)ccc1Cl",
    "IC50": "6.43 µM"
  },
  {
    "Compound": "COc1cc(N2CCN(C)CC2)ccc1Nc1ncc2c(n1)N(C)c1ccccc1C(=O)N2C",
    "IC50": "> 8 µM"
  }
]

For CC(C)CCN1c2nc(Nc3cc(F)c(O)c(F)c3)ncc2N(C)C(=O)C1C (configuration not stated) on K5, measured IC50 was > 5 µM

For CO[C@H]1C[C@@H]2CC[C@@H](C)[C@@](O)(O2)C(=O)C(=O)N2CCCC[C@H]2C(=O)O[C@H]([C@H](C)C[C@@H]2CC[C@@H](OC(=O)C(C)(CO)CO)[C@H](OC)C2)CC(=O)[C@H](C)/C=C(\C)[C@@H](O)[C@@H](OC)C(=O)[C@H](C)C[C@H](C)/C=C/C=C/C=C/1C [TEMSIROLIMUS] on K5, measured IC50 was 0.00133 µM

For C=C(c1ccc(C(=O)O)cc1)c1cc2c(cc1C)C(C)(C)CCC2(C)C [BEXAROTENE] on K5, measured IC50 was > 8 µM

###

Listed here are compounds together with their documented IC50.
System: HCT-15;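 note: cell viability readout, IC50 reflecting suppression of HCT-15 cell growth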
Test: cells
Format: functional, cell-based, Homo sapiens
Details: Homo sapiens, HCT-15
Description: SANGER: Inhibition of human HCT-15 cell growth in a cell viability assay.

[
  {
    "Compound": "O=C(O)c1ccc(-c2c[nH]c3ncc(-c4ccccc4)cc23)cc1C1CCCC1 [GSK-650394]",
    "System name": "HCT-15",
    "Reported metric": "IC50",
    "Result value": "3630 nM"
  },
  {
    "Compound": "CC(C)c1ccccc1Cc1cc(C(=O)Nc2ccc(S(=O)(=O)c3ccccc3C(C)(C)C)cc2)c(O)c(O)c1O",
    "System name": "HCT-15",
    "Reported metric": "IC50",
    "Result value": "202 nM"
  },
  {
    "Compound": "CS(=O)(=O)c1ccc(C(=O)Nc2ccc(Cl)c(-c3ccccn3)c2)c(Cl)c1 [VISMODEGIB]",
    "System name": "HCT-15",
    "Reported metric": "IC50",
    "Result value": "> 10000 nM"
  }
]

// sample Nc1ccn([C@@H]2O[C@H](CO)[C@@H](O)C2(F)F)c(=O)n1 [GEMCITABINE] , its IC50 was 82.2 nM

// sample CO[C@H]1C[C@@H]2CC[C@@H](C)[C@@](O)(O2)C(=O)C(=O)N2CCCC[C@H]2C(=O)O[C@H]([C@H](C)C[C@@H]2CC[C@@H](OC(=O)C(C)(CO)CO)[C@H](OC)C2)CC(=O)[C@H](C)/C=C(\C)[C@@H](O)[C@@H](OC)C(=O)[C@H](C)C[C@H](C)/C=C/C=C/C=C/1C [TEMSIROLIMUS] , its IC50 was > 200 nM

// sample CC(C)CCN1c2nc(Nc3cc(F)c(O)c(F)c3)ncc2N(C)C(=O)C1C (stereo unspecified) , its IC50 was > 5000 nM
